Source listed as paper PMC12820563.

- study_system: MBP-FoxP3dN (Mus musculus, UniProt Q99JB6 188-423)
- Sequence: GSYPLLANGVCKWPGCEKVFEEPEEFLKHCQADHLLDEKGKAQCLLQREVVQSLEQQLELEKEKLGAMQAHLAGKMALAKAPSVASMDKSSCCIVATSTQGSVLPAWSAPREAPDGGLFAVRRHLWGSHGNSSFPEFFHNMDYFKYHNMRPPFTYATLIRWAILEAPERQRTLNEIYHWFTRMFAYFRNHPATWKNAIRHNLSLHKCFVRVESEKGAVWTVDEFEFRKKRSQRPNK
- test_details: PD-seq (MBP pull-down with sequencing); 20 mM Tris-HCl pH 7.5, 100 mM NaCl, 1.5 mM MgCl2, 0.4 uM protein, 0.1 uM dsDNA library, 30 min, room temperature, amylose pull-down; high values mean tight binding
- stated_conditions: protein: recombinant; tags: His6-MBP; chain copies: 2; dsDNA, one strand shown
In all, about 16,000 sequences were measured (“rpm ratio (pull-down/input)”: median about 0.5, highest 2% from about 5.5 on). Shown is part of a subset that was picked to be rich in the highest values.
measurement_label: binding signal

Task: Recorded binding signal for GATGATTGTTCTCCCAGCTGATGAATTTTTTGATTCGAGTAAACAAATTTTCCTAATCTTTCTGTTCAAGCGCCATCTAC with MBP-FoxP3dN (Mus musculus, UniProt Q99JB6 188-423), please?
Output: 0.323 RPM ratio (pull-down/input)

Task: Recorded binding signal for GATGATTGTTCTCCCAGCTGATGAATTTTTGTTTTCGAGTAAACAAATTTTCCTAATCTTTCTGTTCAAGCGCCATCTAC with MBP-FoxP3dN (Mus musculus, UniProt Q99JB6 188-423), please?
Output: 2.51 RPM ratio (pull-down/input)

Task: Recorded binding signal for GATGATTGTTCTCCCAGCTGATGAATTTTGTTTTTCGAGTAAACAAATTTTCCTAATCTTTCTGTTCAAGCGCCATCTAC with MBP-FoxP3dN (Mus musculus, UniProt Q99JB6 188-423), please?
Output: 7.43 RPM ratio (pull-down/input)

Task: Recorded binding signal for GATGATTGTTCTCCCAGCTGATGAATTGTTGAATTCGAGTAAACAAATTTTCCTAATCTTTCTGTTCAAGCGCCATCTAC with MBP-FoxP3dN (Mus musculus, UniProt Q99JB6 188-423), please?
Output: 1 RPM ratio (pull-down/input)

----------
- study_system: MBP-FoxP3dN (Mus musculus, UniProt Q99JB6 188-423)
- Sequence: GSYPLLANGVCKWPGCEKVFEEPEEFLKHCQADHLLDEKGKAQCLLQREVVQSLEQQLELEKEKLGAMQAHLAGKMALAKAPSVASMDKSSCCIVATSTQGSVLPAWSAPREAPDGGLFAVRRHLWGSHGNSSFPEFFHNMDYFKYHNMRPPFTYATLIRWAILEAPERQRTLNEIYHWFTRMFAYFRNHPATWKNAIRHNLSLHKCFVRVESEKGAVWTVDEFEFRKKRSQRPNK
- test_details: PD-seq (MBP pull-down with sequencing); 20 mM Tris-HCl pH 7.5, 100 mM NaCl, 1.5 mM MgCl2, 0.4 uM protein, 0.1 uM dsDNA library, 30 min, room temperature, amylose pull-down; high values mean tight binding
- stated_conditions: protein: recombinant; tags: His6-MBP; chain copies: 2; dsDNA, one strand shown
Whole data set: some 16,000 sequences, median “rpm ratio (pull-down/input)” near 0.5, cut for the highest 2% near 5.5. The list comes from a sample in which the highest values are over-represented; it also holds close analogues and randomly drawn sequences.
Assignment: determine reported binding signal for the given sequences.

Task: Looking for the measured binding signal of GATGATTGTTCTCCCAGCTGATGAATTATTTTTGTCGAGTAAACAAATTTTCCTAATCTTTCTGTTCAAGCGCCATCTAC , can you help?
Output: 0.947 RPM ratio (pull-down/input)

Task: Looking for the measured binding signal of GATGATTGTTCTCCCAGCTGATGAATTATATCTGTCGAGTAAACAAATTTTCCTAATCTTTCTGTTCAAGCGCCATCTAC , can you help?
Output: 0.544 RPM ratio (pull-down/input)

Task: Looking for the measured binding signal of GATGATTGTTCTCCCAGCTGATGAATTGTTATTGTCGAGTAAACAAATTTTCCTAATCTTTCTGTTCAAGCGCCATCTAC , can you help?
Output: 6.63 RPM ratio (pull-down/input)

Task: Looking for the measured binding signal of GATGATTGTTCTCCCAGCTGATGAATTTTTATTGTCGAGTAAACAAATTTTCCTAATCTTTCTGTTCAAGCGCCATCTAC , can you help?
Output: 0.972 RPM ratio (pull-down/input)

----------
- study_system: MBP-FoxP3dN (Mus musculus, UniProt Q99JB6 188-423)
- Sequence: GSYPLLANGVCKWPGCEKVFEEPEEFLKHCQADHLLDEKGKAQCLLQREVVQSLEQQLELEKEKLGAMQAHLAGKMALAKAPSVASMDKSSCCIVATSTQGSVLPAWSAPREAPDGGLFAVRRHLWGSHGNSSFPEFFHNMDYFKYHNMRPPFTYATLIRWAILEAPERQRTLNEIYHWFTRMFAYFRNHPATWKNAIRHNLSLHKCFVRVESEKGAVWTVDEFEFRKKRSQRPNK
- test_details: PD-seq (MBP pull-down with sequencing); 20 mM Tris-HCl pH 7.5, 100 mM NaCl, 1.5 mM MgCl2, 0.4 uM protein, 0.1 uM dsDNA library, 30 min, room temperature, amylose pull-down; high values mean tight binding
- stated_conditions: protein: recombinant; tags: His6-MBP; chain copies: 2; dsDNA, one strand shown
In all, about 16,000 sequences were measured (“rpm ratio (pull-down/input)”: median about 0.5, highest 2% from about 5.5 on). Shown is part of a subset that was picked to be rich in the highest values.
measurement_label: binding signal

Task: Looking for the measured binding signal of GATGATTGTTCTCCCAGCTGATGAATTCGAGTTTTCGAGTAAACAAATTTTCCTAATCTTTCTGTTCAAGCGCCATCTAC , can you help?
Output: 0.651 RPM ratio (pull-down/input)

Task: Looking for the measured binding signal of GATGATTGTTCTCCCAGCTGATGAATTAACAAATTCGAGTAAACAAATTTTCCTAATCTTTCTGTTCAAGCGCCATCTAC , can you help?
Output: 0.494 RPM ratio (pull-down/input)

Task: Looking for the measured binding signal of GATGATTGTTCTCCCAGCTGATGAATTCTGTTTTTCGAGTAAACAAATTTTCCTAATCTTTCTGTTCAAGCGCCATCTAC , can you help?
Output: 5.51 RPM ratio (pull-down/input)

Task: Looking for the measured binding signal of GATGATTGTTCTCCCAGCTGATGAATTCTGTTGTTCGAGTAAACAAATTTTCCTAATCTTTCTGTTCAAGCGCCATCTAC , can you help?
Output: 7.51 RPM ratio (pull-down/input)

Task: Looking for the measured binding signal of GATGATTGTTCTCCCAGCTGATGAATTGAGCTGGTCGAGTAAACAAATTTTCCTAATCTTTCTGTTCAAGCGCCATCTAC , can you help?
Output: 0.419 RPM ratio (pull-down/input)

Task: Looking for the measured binding signal of GATGATTGTTCTCCCAGCTGATGAATTCTTCTGCTCGAGTAAACAAATTTTCCTAATCTTTCTGTTCAAGCGCCATCTAC , can you help?
Output: 0.236 RPM ratio (pull-down/input)

Task: Looking for the measured binding signal of GATGATTGTTCTCCCAGCTGATGAATTCTTTACGTCGAGTAAACAAATTTTCCTAATCTTTCTGTTCAAGCGCCATCTAC , can you help?
Output: 0.372 RPM ratio (pull-down/input)

Task: Looking for the measured binding signal of GATGATTGTTCTCCCAGCTGATGAATTCTTTGCGTCGAGTAAACAAATTTTCCTAATCTTTCTGTTCAAGCGCCATCTAC , can you help?
Output: 0.489 RPM ratio (pull-down/input)

Task: Looking for the measured binding signal of GATGATTGTTCTCCCAGCTGATGAATTCCTGTTTTCGAGTAAACAAATTTTCCTAATCTTTCTGTTCAAGCGCCATCTAC , can you help?
Output: 0.929 RPM ratio (pull-down/input)

Task: Looking for the measured binding signal of GATGATTGTTCTCCCAGCTGATGAATTCGTAGCATCGAGTAAACAAATTTTCCTAATCTTTCTGTTCAAGCGCCATCTAC , can you help?
Output: 1.31 RPM ratio (pull-down/input)

Task: Looking for the measured binding signal of GATGATTGTTCTCCCAGCTGATGAATTGTTTGCGTCGAGTAAACAAATTTTCCTAATCTTTCTGTTCAAGCGCCATCTAC , can you help?
Output: 6.41 RPM ratio (pull-down/input)

Task: Looking for the measured binding signal of GATGATTGTTCTCCCAGCTGATGAATTGTAGCATTCGAGTAAACAAATTTTCCTAATCTTTCTGTTCAAGCGCCATCTAC , can you help?
Output: 5.76 RPM ratio (pull-down/input)

Task: Looking for the measured binding signal of GATGATTGTTCTCCCAGCTGATGAATTTTGCGCGTCGAGTAAACAAATTTTCCTAATCTTTCTGTTCAAGCGCCATCTAC , can you help?
Output: 3.39 RPM ratio (pull-down/input)

Task: Looking for the measured binding signal of GATGATTGTTCTCCCAGCTGATGAATTAAACGCATCGAGTAAACAAATTTTCCTAATCTTTCTGTTCAAGCGCCATCTAC , can you help?
Output: 1.19 RPM ratio (pull-down/input)

Task: Looking for the measured binding signal of GATGATTGTTCTCCCAGCTGATGAATTTTTTGCGTCGAGTAAACAAATTTTCCTAATCTTTCTGTTCAAGCGCCATCTAC , can you help?
Output: 0.525 RPM ratio (pull-down/input)
